System: NCI-H1734
Assay: relative viability (nuclei count vs DMSO), 5 days (fraction); higher = more cells survive
Settings: first compound 4 µM
Entries and their measured relative viability follow.
MEASURED_METRIC: relative viability

COMPOUND	MEASURED_METRIC	VALUE
Cc1sc2c(c1C)C(c1ccc(Cl)cc1)=N[C@@H](CC(=O)OC(C)(C)C)c1nnc(C)n1-2 [JQ1] + C[C@]1(O)C[C@@H](c2nc(-c3ccc4ccc(-c5ccccc5)nc4c3)c3c(N)nccn32)C1 [Linsitinib] (partner 1 µM)	relative viability	0.418
Cc1sc2c(c1C)C(c1ccc(Cl)cc1)=N[C@@H](CC(=O)OC(C)(C)C)c1nnc(C)n1-2 [JQ1] + C[C@@H](Oc1cc(-c2cnn(C3CCNCC3)c2)cnc1N)c1c(Cl)ccc(F)c1Cl [Crizotinib] (partner 1 µM)	relative viability	0.331
Cc1sc2c(c1C)C(c1ccc(Cl)cc1)=N[C@@H](CC(=O)OC(C)(C)C)c1nnc(C)n1-2 [JQ1] + Cc1cc(Nc2cc(N3CCN(C)CC3)nc(Sc3ccc(NC(=O)C4CC4)cc3)n2)n[nH]1 [Tozasertib] (partner 0.1 µM)	relative viability	0.212

====

Tested on: LC-2-ad
Assay: relative viability (nuclei count vs DMSO), 5 days (fraction); higher = more cells survive
Settings: first compound 0.01581 µM
A collection of compounds and their measured relative viability
MEASURED_METRIC: relative viability

COMPOUND	MEASURED_METRIC	VALUE
Nc1ccn([C@@H]2O[C@H](CO)[C@@H](O)[C@@H]2O)c(=O)n1 [Cytarabine] + CC(=O)c1c(C)c2cnc(Nc3ccc(N4CCNCC4)cn3)nc2n(C2CCCC2)c1=O [Palbociclib] (partner 0.5 µM)	relative viability	0.417
COc1cc2nccc(Oc3ccc(NC(=O)Nc4cc(C)on4)c(Cl)c3)c2cc1OC [Tivozanib] + O=C(c1cc(Cc2n[nH]c(=O)c3ccccc23)ccc1F)N1CCN(C(=O)C2CC2)CC1 [Olaparib] (partner 8 µM)	relative viability	0.793

====

Tested on: NCI-H1755
Test: relative viability (nuclei count vs DMSO), 5 days (fraction); higher = more cells survive
Details: first compound 1.265 µM
# reported relative viability; entries follow
MEASURED_METRIC: relative viability

MOLECULE	MEASURED_METRIC	VALUE
Cc1sc2c(c1C)C(c1ccc(Cl)cc1)=N[C@@H](CC(=O)OC(C)(C)C)c1nnc(C)n1-2 [JQ1] + Cc1nc(Nc2ncc(C(=O)Nc3c(C)cccc3Cl)s2)cc(N2CCN(CCO)CC2)n1 [Dasatinib] (partner 0.075 µM)	relative viability	0.343
Cc1sc2c(c1C)C(c1ccc(Cl)cc1)=N[C@@H](CC(=O)OC(C)(C)C)c1nnc(C)n1-2 [JQ1] + O=C(c1cc(Cc2n[nH]c(=O)c3ccccc23)ccc1F)N1CCN(C(=O)C2CC2)CC1 [Olaparib] (partner 8 µM)	relative viability	0.644

====

Tested on: NCI-H1651
Assay: relative viability (nuclei count vs DMSO), 5 days (fraction); higher = more cells survive
Settings: first compound 0.005 µM
Parameter: relative viability. Scope: all listed entries.
MEASURED_METRIC: relative viability

COMPOUND	VALUE
Nc1ccn([C@@H]2O[C@H](CO)[C@@H](O)[C@@H]2O)c(=O)n1 [Cytarabine] + CS(=O)(=O)CCNCc1ccc(-c2ccc3ncnc(Nc4ccc(OCc5cccc(F)c5)c(Cl)c4)c3c2)o1 [Lapatinib] (partner 2 µM)	0.801
Nc1ccn([C@@H]2O[C@H](CO)[C@@H](O)[C@@H]2O)c(=O)n1 [Cytarabine] + N=C(N)NC(=N)NCCc1ccccc1 [Phenformin] (partner 250 µM)	0.304
Nc1ccn([C@@H]2O[C@H](CO)[C@@H](O)[C@@H]2O)c(=O)n1 [Cytarabine] + CC(C)C[C@H](NC(=O)[C@H](Cc1ccccc1)NC(=O)c1cnccn1)B(O)O [Bortezomib] (partner 0.002 µM)	1.09
